Provenance of the data: patent US20230134571A1

target: HIV Env, isolate 62357_14_D3_4589 (HIV); assay: cell-based or functional assay
measurement-label: IC80 (µg/ml) with constrains (µg/mL)
Please reply with the bare figure in µg/mL and do not write the unit itself.

*Q* # IC80 (µg/ml) with constrains lookup, item ePGDM9 (antibody, V domains shown) VH: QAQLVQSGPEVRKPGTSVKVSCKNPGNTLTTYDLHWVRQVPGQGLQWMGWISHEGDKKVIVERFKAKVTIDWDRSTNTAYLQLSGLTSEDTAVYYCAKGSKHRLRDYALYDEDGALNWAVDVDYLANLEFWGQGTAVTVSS VL: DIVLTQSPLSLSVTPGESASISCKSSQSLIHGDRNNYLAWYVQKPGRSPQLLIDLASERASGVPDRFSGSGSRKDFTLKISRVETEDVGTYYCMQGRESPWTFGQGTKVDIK
*A* 38

*Q* # IC80 (µg/ml) with constrains lookup, item ePGDM5 (antibody, V domains shown) VH: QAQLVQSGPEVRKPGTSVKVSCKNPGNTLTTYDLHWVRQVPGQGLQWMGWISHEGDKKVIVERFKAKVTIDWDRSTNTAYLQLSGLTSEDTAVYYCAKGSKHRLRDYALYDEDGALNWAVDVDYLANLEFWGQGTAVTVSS VL: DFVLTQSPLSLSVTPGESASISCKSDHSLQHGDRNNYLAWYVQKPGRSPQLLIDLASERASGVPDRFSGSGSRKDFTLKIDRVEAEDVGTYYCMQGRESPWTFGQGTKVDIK
*A* 39.9

*Q* # IC80 (µg/ml) with constrains lookup, item ePGDM13 (antibody, V domains shown) VH: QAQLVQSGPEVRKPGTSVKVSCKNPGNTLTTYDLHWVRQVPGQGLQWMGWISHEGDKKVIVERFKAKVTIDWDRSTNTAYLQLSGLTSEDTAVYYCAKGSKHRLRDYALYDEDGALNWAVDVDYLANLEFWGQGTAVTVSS VL: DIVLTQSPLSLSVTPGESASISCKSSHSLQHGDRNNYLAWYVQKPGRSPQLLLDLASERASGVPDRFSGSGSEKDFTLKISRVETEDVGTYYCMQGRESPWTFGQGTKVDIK
*A* 69.5
